Where do these numbers come from? They come from PubChem BioAssay (NCI).

test system: SK-OV-3 ovarian; assay: NCI tumour cell line growth inhibition, 48 h

{"compound": "CN(C)c1ccc(-c2cc(-c3ccc(Nc4nc(Nc5ccccc5)nc(Nc5ccc(Cl)cc5)n4)cc3)nc(N)n2)cc1", "GI50": "18.8 µM"}
{"compound": "N#Cc1cccc(C(=O)Nc2cccc(NC(=O)c3cccc(C#N)c3)c2)c1", "GI50": "> 100 µM"}
{"compound": "CC(C)(O)C1CCC(Nc2ccc3ncc(-c4cccc(C(F)(F)F)c4)n3n2)CC1 (stereo not given)", "GI50": "2.68 µM"}
{"compound": "COC(=O)c1cc(-c2cc(OC)c(OC)c(OC)c2)[nH]c1N/N=C/c1c(Cl)cccc1Cl", "GI50": "3.07 µM"}
{"compound": "CCc1cccc2c3c(sc12)C(c1ccc(Cl)cc1)C(C#N)=C(N)O3 (stereo not given)", "GI50": "1.14 µM"}
